The following molecules each carry a recorded IC50 for Cytochrome P450 2D6 (Homo sapiens, UniProt P10635).

Sample answers from the record:
Cc1cc(C(O)C(C)N2CCC(O)(c3ccc(F)cc3)CC2)ccc1O (racemic)
< 0.3 µM
Cc1cc(O)ccc1C(O)C(C)N1CCC(O)(c2ccc(F)cc2)CC1 (racemic)
3.9 µM

get_value(item= CC(C(O)c1ccc2c(c1)CN(C)C(=O)N2)N1CCC(O)(c2ccc(F)cc2)CC1 (racemic) , readout=IC50) returns > 30 µM

Reported IC50 of CC(C(O)c1ccc(O)c(-c2ccccc2)c1)N1CCC(O)(c2ccc(F)cc2)CC1 (racemic) : 8.4 µM

Lab note: measured IC50 of CC(C(O)c1ccc2c(c1)OCC(=O)N2)N1CCC(O)(c2ccc(F)cc2)CC1 (racemic) was > 30 µM

----------
Quick record of IC50 values for UniProt P10635.
Response body: numeric value in µM, unit text excluded.

CC(C(O)c1ccc2[nH]c(=O)oc2c1)N1CCC(O)(c2ccc(F)cc2)CC1 (racemic)
11

// CC(C(O)c1ccc(O)c(Cl)c1)N1CCC(O)(c2ccc(F)cc2)CC1 (racemic) : IC50 value = 3.5

----------
Quick list: pIC50 per entry.
# measurement target: Voltage-gated inwardly rectifying potassium channel KCNH2 (Homo sapiens, UniProt Q12809)
# Sequence (Q12809 whole entry): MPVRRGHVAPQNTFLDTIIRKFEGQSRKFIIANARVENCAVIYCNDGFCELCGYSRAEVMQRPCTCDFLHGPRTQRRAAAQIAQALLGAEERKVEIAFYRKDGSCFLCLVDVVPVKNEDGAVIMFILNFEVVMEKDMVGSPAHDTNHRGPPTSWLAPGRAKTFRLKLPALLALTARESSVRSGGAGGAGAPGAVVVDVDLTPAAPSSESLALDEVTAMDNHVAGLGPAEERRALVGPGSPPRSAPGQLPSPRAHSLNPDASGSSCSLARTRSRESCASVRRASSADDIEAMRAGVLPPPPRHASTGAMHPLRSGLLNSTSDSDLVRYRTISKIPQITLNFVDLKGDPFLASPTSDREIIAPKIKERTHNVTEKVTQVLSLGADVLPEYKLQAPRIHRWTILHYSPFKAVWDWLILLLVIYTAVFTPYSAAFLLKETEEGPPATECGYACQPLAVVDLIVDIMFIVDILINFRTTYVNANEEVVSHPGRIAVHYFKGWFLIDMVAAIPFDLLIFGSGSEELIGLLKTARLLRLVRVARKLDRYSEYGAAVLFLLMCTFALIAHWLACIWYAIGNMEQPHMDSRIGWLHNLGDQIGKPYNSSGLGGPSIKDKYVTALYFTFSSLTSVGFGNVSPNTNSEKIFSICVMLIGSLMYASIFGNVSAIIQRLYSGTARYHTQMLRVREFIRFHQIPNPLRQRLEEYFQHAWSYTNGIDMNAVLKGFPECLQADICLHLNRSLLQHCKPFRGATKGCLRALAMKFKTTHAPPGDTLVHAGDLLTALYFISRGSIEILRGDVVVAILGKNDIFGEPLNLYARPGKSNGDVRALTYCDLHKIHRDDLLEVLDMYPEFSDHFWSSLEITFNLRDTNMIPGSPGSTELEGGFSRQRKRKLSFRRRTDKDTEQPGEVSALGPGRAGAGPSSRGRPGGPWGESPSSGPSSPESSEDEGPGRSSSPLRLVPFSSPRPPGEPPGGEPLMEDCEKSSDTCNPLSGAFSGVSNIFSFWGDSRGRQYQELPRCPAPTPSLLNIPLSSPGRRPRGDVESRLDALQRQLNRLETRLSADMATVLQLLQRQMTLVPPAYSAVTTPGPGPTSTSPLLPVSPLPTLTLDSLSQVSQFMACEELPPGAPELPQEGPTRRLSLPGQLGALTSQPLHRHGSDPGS
pIC50 field: float, defined as -log10 of concentration (mol/L).

Take a look at these entries with their results.
O=C1CCc2cc(C(O)CN3CCC(O)(c4cccc(F)c4)CC3)ccc2N1 (racemic)
4.89
O=C1CCc2cc(C(O)CN3CCC(O)(c4cccc(F)c4)CC3)ccc2N1 (single isomer, unassigned; (+))
5.01
CC(C(O)c1ccc2c(c1)CNC(=O)N2)N1CCC(O)(c2ccc(F)cc2)CC1 (racemic)
5.13

Then this molecule:
Short answer for `C[C@@H]([C@@H](O)c1ccc(O)cc1)N1CCC(O)(c2ccccc2)CC1` : pIC50 was 5.00

----------
# measurement target: Glutamate receptor ionotropic, NMDA 2B (Rattus norvegicus, UniProt P35439+Q00960)
# Sequence (Q00960 whole entry, one chain of several): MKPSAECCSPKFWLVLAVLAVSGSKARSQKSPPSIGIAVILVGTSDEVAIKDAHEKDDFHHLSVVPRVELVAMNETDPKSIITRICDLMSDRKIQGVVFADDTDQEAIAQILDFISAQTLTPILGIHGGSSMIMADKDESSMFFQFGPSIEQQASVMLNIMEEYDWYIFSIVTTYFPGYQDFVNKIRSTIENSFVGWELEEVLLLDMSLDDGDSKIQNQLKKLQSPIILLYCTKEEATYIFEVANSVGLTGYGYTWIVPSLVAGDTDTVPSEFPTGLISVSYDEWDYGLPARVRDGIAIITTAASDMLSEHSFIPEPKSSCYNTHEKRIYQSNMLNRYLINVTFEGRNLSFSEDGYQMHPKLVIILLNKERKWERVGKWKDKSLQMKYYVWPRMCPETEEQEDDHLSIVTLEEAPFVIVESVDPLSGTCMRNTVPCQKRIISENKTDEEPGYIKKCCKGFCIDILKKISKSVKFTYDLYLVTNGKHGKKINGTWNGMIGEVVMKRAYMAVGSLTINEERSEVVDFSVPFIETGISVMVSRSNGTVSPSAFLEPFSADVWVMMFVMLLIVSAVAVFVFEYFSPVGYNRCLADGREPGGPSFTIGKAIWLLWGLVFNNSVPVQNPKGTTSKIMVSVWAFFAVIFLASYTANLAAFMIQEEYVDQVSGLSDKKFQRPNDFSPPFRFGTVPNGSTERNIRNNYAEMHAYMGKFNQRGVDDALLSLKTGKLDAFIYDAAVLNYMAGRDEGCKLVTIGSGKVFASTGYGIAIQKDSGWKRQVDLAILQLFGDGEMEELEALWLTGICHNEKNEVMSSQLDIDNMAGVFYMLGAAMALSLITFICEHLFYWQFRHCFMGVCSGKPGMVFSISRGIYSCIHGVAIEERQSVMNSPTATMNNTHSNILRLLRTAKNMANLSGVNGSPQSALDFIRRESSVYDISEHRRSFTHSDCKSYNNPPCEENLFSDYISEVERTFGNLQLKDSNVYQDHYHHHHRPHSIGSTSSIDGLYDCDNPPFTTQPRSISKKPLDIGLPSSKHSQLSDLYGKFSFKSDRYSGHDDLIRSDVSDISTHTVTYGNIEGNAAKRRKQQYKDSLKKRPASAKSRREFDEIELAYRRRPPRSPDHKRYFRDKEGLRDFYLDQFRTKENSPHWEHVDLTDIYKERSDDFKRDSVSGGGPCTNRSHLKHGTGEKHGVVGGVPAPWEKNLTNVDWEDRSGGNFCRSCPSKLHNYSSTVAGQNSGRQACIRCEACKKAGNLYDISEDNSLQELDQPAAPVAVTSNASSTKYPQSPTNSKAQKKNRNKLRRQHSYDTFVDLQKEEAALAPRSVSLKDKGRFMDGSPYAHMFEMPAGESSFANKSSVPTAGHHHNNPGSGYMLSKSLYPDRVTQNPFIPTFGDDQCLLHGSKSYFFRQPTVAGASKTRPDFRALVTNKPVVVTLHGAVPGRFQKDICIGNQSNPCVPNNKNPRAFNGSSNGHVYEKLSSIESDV
# test details: Displacement of [3H]racemic CP-101606 from rat NR2B receptor in P2 membrane
The label is true for IC50 below 9 nM and false for IC50 equal to or exceeding 9 nM.

Use the examples below as a reference point.
CC(C(O)c1ccc(O)c(C(C)(C)C)c1)N1CCC(O)(c2ccc(F)cc2)CC1 (racemic)
false
O=C1CCc2cc(C(O)CN3CCC(O)(c4cccc(F)c4)CC3)ccc2N1 (single isomer, unassigned; (+))
true
CC(C(O)c1ccc(O)c(Cl)c1)N1CCC(O)(c2ccc(F)cc2)CC1 (racemic)
true
CC(C(O)c1ccc2c(c1)CN(C)C(=O)N2)N1CCC(O)(c2ccc(F)cc2)CC1 (racemic)
false
CC(C(O)c1ccc2c(c1)COC(=O)N2)N1CCC(O)(c2ccc(F)cc2)CC1 (racemic)
false

# next molecule below
Ask: Does the reported IC50 of the following molecule sit strictly below 9 nM? CC(C(O)c1ccc2c(c1)CCC(=O)N2)N1CCC(O)(c2ccc3c(c2)COCC3)CC1 (racemic)
Result: false

----------
The reader will find reported pIC50 values listed item by item below.
# measurement target: Cytochrome P450 2D6 (Homo sapiens)
# Sequence (P10635 whole entry): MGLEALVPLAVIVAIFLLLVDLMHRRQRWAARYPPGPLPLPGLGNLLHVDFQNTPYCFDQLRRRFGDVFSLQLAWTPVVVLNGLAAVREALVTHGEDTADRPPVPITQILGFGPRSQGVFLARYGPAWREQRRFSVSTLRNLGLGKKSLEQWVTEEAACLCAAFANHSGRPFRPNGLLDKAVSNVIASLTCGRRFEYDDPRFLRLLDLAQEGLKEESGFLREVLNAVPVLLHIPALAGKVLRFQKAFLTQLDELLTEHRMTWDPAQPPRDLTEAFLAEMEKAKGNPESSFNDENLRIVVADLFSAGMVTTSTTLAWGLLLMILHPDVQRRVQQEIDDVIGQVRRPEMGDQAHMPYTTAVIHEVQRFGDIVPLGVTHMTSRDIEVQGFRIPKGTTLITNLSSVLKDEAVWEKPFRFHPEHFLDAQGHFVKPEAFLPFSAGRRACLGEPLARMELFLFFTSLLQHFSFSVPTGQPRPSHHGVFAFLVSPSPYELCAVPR
pIC50: −log10 of the molar value.

CC(C(O)c1ccc2c(c1)CNC(=O)N2)N1CCC(O)(c2ccc(F)cc2)CC1 (racemic)
< 4.52
CC(C(O)c1ccc2c(c1)CCC(=O)N2)N1CCC(O)(c2ccc(F)cc2)CC1 (racemic)
< 4.52

# pIC50 measured on Cytochrome P450 2D6 (Homo sapiens) for item CC(C(O)c1ccc2c(c1)COC(=O)N2)N1CCC(O)(c2ccc(F)cc2)CC1 (racemic) = < 4.52
